assay: PAMPA assay, gastrointestinal (GI) membrane; assay type: in vitro ADME; details: pH 7.4, room temperature, four hours, read-out: Apparent permeability Papp
test-readout: Papp at 4 h

Field Papp at 4 h (entry O=C(OCCOCCO)N(c1cccc(Br)c1)c1nc(SCCN2CCOCC2)nc2c1cnn2CC(Cl)c1ccccc1 (stereo not drawn) [SI306-PD2] ) reads 18.4 ×10⁻⁶ cm/s

Field Papp at 4 h (entry ClC(Cn1ncc2c(Nc3cccc(Br)c3)nc(SCCN3CCOCC3)nc21)c1ccccc1 (stereo not drawn) [SI306] ) reads 5.93 ×10⁻⁶ cm/s

Field Papp at 4 h (entry CC(C)NCC(O)COc1cccc2ccccc12 (stereo not drawn) [Propranolol, propranolol, reference compound] ) reads 19.2 ×10⁻⁶ cm/s

---

system: U87 glioblastoma cell line; experiment: 2D cell viability assay (PrestoBlue), U87; format: cell-based; settings: Homo sapiens, 72 h, U87 2D culture, FBS-free DMEM (w/o)
test-readout: IC50 (nM)
// return numeric value only (unit: nM, not printed)

Field IC50 (entry ClC(Cn1ncc2c(Nc3cccc(Br)c3)nc(SCCN3CCOCC3)nc21)c1ccccc1 (centres unmarked) [SI306] ) reads 270

Field IC50 (entry O=C(OCCOCCO)N(c1cccc(Br)c1)c1nc(SCCN2CCOCC2)nc2c1cnn2CC(Cl)c1ccccc1 (centres unmarked) [SI306-PD2] ) reads 290

---

experiment: Stability/release in fetal bovine serum (FBS); details: bovine, fetal bovine serum (absolute FBS), pH 7.4
test-readout: half-life

Field half-life (entry O=C(OCCOCCO)N(c1cccc(Br)c1)c1nc(SCCN2CCOCC2)nc2c1cnn2CC(Cl)c1ccccc1 (centres unmarked) ) reads 10.7 h

Field half-life (entry ClC(Cn1ncc2c(Nc3cccc(Br)c3)nc(SCCN3CCOCC3)nc21)c1ccccc1 (centres unmarked) ) reads > 100 h

---

assay: in vitro; conditions: PAMPA, pH 7.4
test-readout: Papp at 4 h (×10⁻⁶ cm/s)
// return numeric value only (unit: ×10⁻⁶ cm/s, not printed)

Field Papp at 4 h (entry ClC(Cn1ncc2c(Nc3cccc(Br)c3)nc(SCCN3CCOCC3)nc21)c1ccccc1 (centres unmarked) ) reads 8.44

Field Papp at 4 h (entry O=C(OCCOCCO)N(c1cccc(Br)c1)c1nc(SCCN2CCOCC2)nc2c1cnn2CC(Cl)c1ccccc1 (centres unmarked) ) reads 19.5

---

experiment: Stability/release in human plasma; conditions: human, pH 7.4
test-readout: half-life (h)
// return numeric value only (unit: h, not printed)

Field half-life (entry O=C(OCCOCCO)N(c1cccc(Br)c1)c1nc(SCCN2CCOCC2)nc2c1cnn2CC(Cl)c1ccccc1 (centres unmarked) ) reads 10.9
